As shown below, each of these molecules has a reported EC50 value.
# experimentalTarget: recombinant EZH2-641F complex (EZH2 Y641F/EED/SUZ12/RbAp48/AEBP2) (Homo sapiens (Human), UniProt Q15910, Y641F)
# Sequence (Q15910 whole entry Y641F): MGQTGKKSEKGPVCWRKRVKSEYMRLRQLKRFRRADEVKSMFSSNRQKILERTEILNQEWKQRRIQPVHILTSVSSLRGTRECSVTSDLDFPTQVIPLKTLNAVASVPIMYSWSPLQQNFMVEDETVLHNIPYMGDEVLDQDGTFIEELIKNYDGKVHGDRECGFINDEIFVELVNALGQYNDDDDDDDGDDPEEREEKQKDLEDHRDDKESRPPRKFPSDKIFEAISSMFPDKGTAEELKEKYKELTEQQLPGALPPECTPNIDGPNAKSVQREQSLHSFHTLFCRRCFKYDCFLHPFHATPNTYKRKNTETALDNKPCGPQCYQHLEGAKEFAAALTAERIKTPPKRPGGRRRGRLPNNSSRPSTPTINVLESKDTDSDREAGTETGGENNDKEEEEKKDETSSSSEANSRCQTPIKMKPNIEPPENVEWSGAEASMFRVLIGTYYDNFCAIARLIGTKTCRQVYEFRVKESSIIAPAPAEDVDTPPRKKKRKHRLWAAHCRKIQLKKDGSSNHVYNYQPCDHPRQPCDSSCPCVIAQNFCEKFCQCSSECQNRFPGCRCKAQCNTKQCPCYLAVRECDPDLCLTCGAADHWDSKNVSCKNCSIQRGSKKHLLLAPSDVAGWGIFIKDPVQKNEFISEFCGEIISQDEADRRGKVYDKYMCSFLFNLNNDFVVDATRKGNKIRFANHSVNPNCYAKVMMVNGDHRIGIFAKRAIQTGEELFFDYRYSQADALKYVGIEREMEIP
# Sequence (O75530 whole entry partner): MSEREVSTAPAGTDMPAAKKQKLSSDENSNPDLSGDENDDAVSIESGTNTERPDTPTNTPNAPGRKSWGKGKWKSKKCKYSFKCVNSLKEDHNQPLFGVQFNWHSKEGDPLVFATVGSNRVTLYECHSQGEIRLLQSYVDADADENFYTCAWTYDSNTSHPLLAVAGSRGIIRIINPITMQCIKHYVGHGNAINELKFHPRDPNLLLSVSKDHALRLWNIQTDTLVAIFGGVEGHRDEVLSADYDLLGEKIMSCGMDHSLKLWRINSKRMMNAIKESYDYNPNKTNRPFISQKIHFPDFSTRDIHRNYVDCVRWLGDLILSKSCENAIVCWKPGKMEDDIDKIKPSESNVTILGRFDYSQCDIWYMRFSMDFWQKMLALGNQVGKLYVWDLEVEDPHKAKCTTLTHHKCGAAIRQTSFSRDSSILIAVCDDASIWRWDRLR
# Sequence (Q15022 whole entry partner): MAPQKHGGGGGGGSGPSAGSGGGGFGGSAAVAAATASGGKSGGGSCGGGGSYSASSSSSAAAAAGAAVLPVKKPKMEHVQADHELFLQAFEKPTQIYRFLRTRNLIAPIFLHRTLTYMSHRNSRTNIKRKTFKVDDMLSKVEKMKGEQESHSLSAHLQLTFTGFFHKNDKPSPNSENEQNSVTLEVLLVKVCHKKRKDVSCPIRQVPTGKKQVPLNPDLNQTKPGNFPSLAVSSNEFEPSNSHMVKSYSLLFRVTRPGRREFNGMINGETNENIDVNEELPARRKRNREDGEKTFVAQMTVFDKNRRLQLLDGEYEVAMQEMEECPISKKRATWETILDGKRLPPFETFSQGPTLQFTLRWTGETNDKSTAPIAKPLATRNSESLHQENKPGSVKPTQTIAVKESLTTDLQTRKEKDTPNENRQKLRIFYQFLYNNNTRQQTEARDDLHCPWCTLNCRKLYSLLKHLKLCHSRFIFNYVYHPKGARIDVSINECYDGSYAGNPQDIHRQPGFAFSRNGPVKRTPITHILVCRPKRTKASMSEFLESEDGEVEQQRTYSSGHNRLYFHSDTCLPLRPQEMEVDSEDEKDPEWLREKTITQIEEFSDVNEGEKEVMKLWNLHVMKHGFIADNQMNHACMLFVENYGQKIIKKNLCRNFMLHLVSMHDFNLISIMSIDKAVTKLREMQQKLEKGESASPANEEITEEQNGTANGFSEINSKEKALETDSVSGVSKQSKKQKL
# Sequence (Q09028 whole entry partner): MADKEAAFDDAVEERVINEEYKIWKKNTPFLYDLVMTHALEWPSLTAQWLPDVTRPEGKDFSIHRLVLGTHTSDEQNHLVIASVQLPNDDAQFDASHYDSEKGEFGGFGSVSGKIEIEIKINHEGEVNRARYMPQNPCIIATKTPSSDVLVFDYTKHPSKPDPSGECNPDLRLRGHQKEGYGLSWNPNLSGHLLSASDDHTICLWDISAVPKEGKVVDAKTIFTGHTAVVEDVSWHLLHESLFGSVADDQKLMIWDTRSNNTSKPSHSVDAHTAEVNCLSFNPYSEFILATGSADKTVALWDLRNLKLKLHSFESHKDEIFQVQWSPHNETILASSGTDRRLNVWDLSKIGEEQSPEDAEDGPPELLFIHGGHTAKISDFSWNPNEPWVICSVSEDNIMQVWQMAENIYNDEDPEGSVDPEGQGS
# Sequence (Q6ZN18 whole entry partner): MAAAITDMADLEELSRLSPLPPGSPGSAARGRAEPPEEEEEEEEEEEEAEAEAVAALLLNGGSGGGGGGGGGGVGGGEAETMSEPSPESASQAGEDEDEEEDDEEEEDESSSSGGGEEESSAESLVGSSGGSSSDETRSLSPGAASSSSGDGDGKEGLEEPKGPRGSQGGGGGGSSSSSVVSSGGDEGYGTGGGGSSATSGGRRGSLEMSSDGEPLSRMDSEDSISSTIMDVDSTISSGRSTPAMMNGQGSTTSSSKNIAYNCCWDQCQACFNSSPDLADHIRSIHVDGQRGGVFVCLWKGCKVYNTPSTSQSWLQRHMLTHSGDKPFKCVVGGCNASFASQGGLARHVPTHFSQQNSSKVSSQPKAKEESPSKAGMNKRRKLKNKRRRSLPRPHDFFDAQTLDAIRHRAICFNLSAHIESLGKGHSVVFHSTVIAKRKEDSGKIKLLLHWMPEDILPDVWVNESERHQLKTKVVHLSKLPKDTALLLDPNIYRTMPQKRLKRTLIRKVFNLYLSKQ
# procedureSummary: EZH2 Histone Methyl Transferase Assay (scintillation proximity assay)
# particulars: 350 nM histone peptide substrate, 500 nM 3H-SAM, 3 hours at room temperature
readoutKind: EC50

Cc1[nH]c(=O)c(CNC(=O)c2cc3c(c(-c4ccc(N5CCNCC5)nc4)c2)OC(C)(C)C3)c2ccccc12 [Example 17] = ≤ 5 µM
CCN(c1cc(-c2ccc(CN3CCOCC3)cc2)cc(C(=O)NCC2C(=O)NC(C)c3cccc(F)c32)c1C)C1CCOCC1 (stereo not shown) [Example 5] = ≤ 5 µM
CCC(C)n1cc(C)c2c(C(=O)NCc3c(=O)[nH]c(C)c4ccccc34)cc(-c3ccc(N4CCN(C(=O)OC(C)(C)C)CC4)nc3)cc21 (stereo not shown) [Example 9] = ≤ 5 µM
CCC(C)n1cc(C)c2c(C(=O)NCc3c(=O)[nH]c(C)c4ccccc34)cc(-c3ccc(N4CCNCC4)nc3)cc21 (stereo not shown) [Example 10] = ≤ 0.5 µM
